QUANTITY: melting point

Some solved entries appear below for comparison.
{"columns": ["MOLECULE", "QUANTITY", "REPORTED"],
 "data": [
  ["Nc1cc(-c2ccnc3c(C(=O)c4cccs4)cnn23)cs1", "melting point", "174 to 176 °C"],
  ["CCCCC[C@@H](CNC(=O)Nc1c(OC)ccc2c1CCCC2)c1cccc2c1OCO2", "melting point", "137 to 138 °C"],
  ["N#CCCNC(=O)c1cccc(-c2cccc(Oc3cncc(Cl)c3)n2)c1", "melting point", "143 to 144 °C"],
  ["Cn1c(COc2ccc(Cn3cc(CCC(=O)O)c(-c4ccccc4)n3)cc2)nc2ccccc21", "melting point", "225 to 226 °C"],
  ["O=C(NCc1cccs1)C1CC2C=CC1C2 (centres undefined)", "melting point", "123 to 124 °C"],
  ["COC(=O)CCc1cc(C(=O)c2ccccc2Cl)c(NC(=O)CBr)s1", "melting point", "104 to 106 °C"]
]}

Ask | Quote melting point reported for O=C1COc2ccc(C3=Nn4cnnc4SC3c3ccccc3Cl)cc2N1 (centres undefined) please.
Reply | 234 to 235 °C

Ask | Quote melting point reported for COc1cc2c(Nc3cc(OC)c(OC)c(OC)c3)c(C#N)cnc2cc1/C=C/CCN1CCN(C)CC1 please.
Reply | 122 to 124 °C

Ask | Quote melting point reported for Cc1cc(-n2nc(C(F)(F)F)cc2-c2ccc(S(C)(=O)=O)cc2)ccc1Br please.
Reply | 127 to 129 °C

---

Examples of molecules with documented melting point follow.

Some solved entries appear below for comparison.
{"columns": ["MOLECULE", "melting point"],
 "data": [
  ["COc1cc(OC)c(-c2nc3ncccc3[nH]2)s1", "93 to 96 °C"],
  ["O=C(O)CO[C@@H]1CCCC[C@H]1NC(=S)Nc1ccccc1 (relative stereo)", "147 to 149 °C"],
  ["NC(=O)NS(=O)(=O)c1cccc(Cl)c1Cl", "197 to 200 °C"],
  ["O=C(O)CCC(=NOCc1ccc(OCc2coc(-c3ccccc3)n2)cc1)c1ccccc1", "144 to 145 °C"],
  ["Cc1cc(CSCCC(=C(N)NCCc2cccc(O)c2)[N+](=O)[O-])sc1CN(C)C", "114 to 115 °C"],
  ["Cc1cc(C)c([N+](=O)[O-])cc1-n1c(C)cc(C)c(C#N)c1=O", "262 to 263 °C"],
  ["Cc1cccc(CCOc2ccc(C=C3SC(=O)NC3=O)cc2)n1", "180 to 182 °C"],
  ["COc1ccc(-c2cc(COS(C)(=O)=O)c(=O)n(CC3CCCC3)n2)cc1F", "108 to 116 °C"]
]}

Ask | Quote melting point reported for CCCCN1C(=O)CC(=O)N(C)c2ccccc21 please.
Reply | 141 to 143 °C

Ask | Quote melting point reported for N#CCNC(=O)C1(NC(=O)c2ccc(CBr)cc2)CCCCC1 please.
Reply | 194 to 196 °C

Ask | Quote melting point reported for CC(=O)c1ccc2nc(N)[nH]c2c1 please.
Reply | 228 to 234 °C

Ask | Quote melting point reported for CCCCC1(N(C)C)CC=C(c2[nH]c3ccccc3c2Cc2ccccc2)CC1 (configuration not stated) please.
Reply | 107 to 115 °C

Ask | Quote melting point reported for Cc1ccc2c3c(c(=O)[nH]c2c1)C(=O)c1ccccc1-3 please.
Reply | > 290 °C
